TARGET_UNDER_TEST: recombinantly produced human-NGF (human, UniProt P01138 122-241, limits assumed)
Sequence (P01138 122-241 limits assumed): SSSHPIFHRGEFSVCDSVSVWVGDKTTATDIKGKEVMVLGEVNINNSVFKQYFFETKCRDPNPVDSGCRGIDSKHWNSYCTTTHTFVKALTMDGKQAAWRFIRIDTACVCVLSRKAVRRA
ASSAY_PROTOCOL: ELISA, human NGF coated, IgG titrated
Below, each entry is listed with its recorded EC50.
The answer is to be given in ng/mL; state only the numeric part.

Consider the following illustrative entries.
BINDER: Ab7 (antibody, human IgG1, V domains shown) VH: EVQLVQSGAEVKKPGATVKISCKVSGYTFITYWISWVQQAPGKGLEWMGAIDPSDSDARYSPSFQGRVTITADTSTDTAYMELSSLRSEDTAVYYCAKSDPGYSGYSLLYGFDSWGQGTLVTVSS VL: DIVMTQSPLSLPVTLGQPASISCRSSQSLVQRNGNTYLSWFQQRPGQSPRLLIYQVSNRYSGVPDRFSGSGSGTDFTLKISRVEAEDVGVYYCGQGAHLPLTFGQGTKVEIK
EC50 (ng/mL): 0.00988

BINDER: Ab30 (antibody, human IgG1, V domains shown) VH: EVQLVQSGAEVKKPGATVKISCKVSGYSFITYWISWVQQAPGKGLEWMGAIDPSDSDARYSPSFQGRVTITADKSTDTAYMELSSLRSEDTAVYYCAKSDPGYSGYSLLYGFDSWGQGTLVTVSS VL: DIVMTQSPLSLPVTLGQPASISCRSSQSLVQRNGNTYLSWFQQRPGQPPRLLIYQVSNRYSGVPDRFSGSGSGTDFTLKISRVEAEDVGVYYCGQGAHLPLTFGQGTKVEIK
EC50 (ng/mL): 0.0254

Prompt: // query EC50 value for entry Ab33 (antibody, human IgG1, V domains shown) VH: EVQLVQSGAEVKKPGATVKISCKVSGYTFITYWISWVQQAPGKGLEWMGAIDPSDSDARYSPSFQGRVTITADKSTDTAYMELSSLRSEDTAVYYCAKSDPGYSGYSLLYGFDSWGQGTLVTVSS VL: DVVMTQSPLSLPVTLGQPASISCRSSQSLVQRNGNTYLSWFQQRPGQSPRLLIYQVSNRYSGVPDRFSGSGSGTDFTLKISRVEAEDVGVYYCGQGAHLPLTFGQGTKVEIK
Response: 0.0342
